Hey, just so you know, these numbers are from paper PMC6913127.

Tested on: T. brucei MERS1 (residues 37–395)
Assay: Fluorescence polarization (FP) RNA/DNA binding to MERS1
Set-up: species or system Trypanosoma brucei
Conditions: 25°C, 25 mM Tris HCl pH 7.5, 5% (v/v) glycerol, 50 mM NaCl, 1 nM fluoresceinated RNA or DNA
EXPERIMENTAL READOUT: Binding to MERS1, result in words

SUBSTANCE	EXPERIMENTAL READOUT	MEASURED
5′-GAGAGGAGGUU-3′ (RNA, backbone not given here)	Binding to MERS1, result in words	did not bind saturably
5′-GAGAGGGAGUU-3′ (RNA, backbone not given here)	Binding to MERS1, result in words	did not bind saturably
5′-GAGAGAGGGUU-3′ (RNA, backbone not given here)	Binding to MERS1, result in words	did not bind saturably
